Experiment Summary: Colistin concentration in epithelial lining fluid (BALF, urea-corrected) after CMS nebulization
Type: in vivo, human
Reported Conditions: human, epithelial lining fluid, inhaled or intranasal; 5 h after start (time by position in Figure 1a); CMS 0.9375 MIU nebulized over 30 min; LC-MS/MS; 20 patients; read-out: Median colistin concentration in ELF
Protocol: Patients were treated with CMS (Xellia Pharmaceuticals ApS, Copenhagen, Denmark) at a total of 3.75 MIU (equivalent to 300 mg of CMS or 112.5 mg of CBA) administered four times a day at 6 h intervals. […] Colistin concentrations, encompassing both colistin A and colistin B, were determined and collectively referred to as “colistin”. […]
Positions of bridges follow the written chain, without caps; N, C: chain ends. Non-standard residues stand in square brackets, D forms with d. Residues, ends and D or L forms follow the SMILES beside them. *: point of attachment. X1 = CC[C@H](C)CCCCC(=O)*; Dab = NCC[C@H](N)C(=O)O
Endpoint Name: level at 5 h (ng/mL)

{"columns": ["Molecule", "Endpoint Name", "Readout Unit", "Recorded Result"],
 "data": [
  ["CC[C@H](C)CCCCC(=O)N[C@@H](CCN)C(=O)N[C@H](C(=O)N[C@@H](CCN)C(=O)N[C@H]1CCNC(=O)[C@H]([C@@H](C)O)NC(=O)[C@H](CCN)NC(=O)[C@H](CCN)NC(=O)[C@H](CC(C)C)NC(=O)[C@@H](CC(C)C)NC(=O)[C@H](CCN)NC1=O)[C@@H](C)O [colistin] (X1-[Dab]T[Dab][Dab][Dab][dL]L[Dab][Dab]T; lactam 4-C)", "level at 5 h", "ng/mL", 8160]
]}

* * *

Experiment Summary: Colistin concentration in plasma after CMS nebulization
Format: in vivo
Reported Conditions: human, inhaled or intranasal, nebulized CMS 0.9375 MIU over 30 min, monitored over 5 h, 20 patients, read-out: Observed peak colistin concentration in plasma, median (IQR)
Description: Patients were treated with CMS (Xellia Pharmaceuticals ApS, Copenhagen, Denmark) at a total of 3.75 MIU (equivalent to 300 mg of CMS or 112.5 mg of CBA) administered four times a day at 6 h intervals. CMS was dissolved in 5 mL of normal saline and administered over 30 min through a jet nebulizer (Sileo 54, Macjin Medical, Seoul, Republic of Korea) connected to the ventilator circuit. […]
Positions of bridges follow the written chain, without caps; N, C: chain ends. Non-standard residues stand in square brackets, D forms with d. Residues, ends and D or L forms follow the SMILES beside them. *: point of attachment. X1 = CC[C@H](C)CCCCC(=O)*; Dab = NCC[C@H](N)C(=O)O
Endpoint Name: Cmax (ng/mL)

{"columns": ["Molecule", "Recorded Result"],
 "data": [
  ["CC[C@H](C)CCCCC(=O)N[C@@H](CCN)C(=O)N[C@H](C(=O)N[C@@H](CCN)C(=O)N[C@H]1CCNC(=O)[C@H]([C@@H](C)O)NC(=O)[C@H](CCN)NC(=O)[C@H](CCN)NC(=O)[C@H](CC(C)C)NC(=O)[C@@H](CC(C)C)NC(=O)[C@H](CCN)NC1=O)[C@@H](C)O [colistin] (X1-[Dab]T[Dab][Dab][Dab][dL]L[Dab][Dab]T; lactam 4-C)", 43.5]
]}

* * *

Experiment Summary: Colistin concentration in epithelial lining fluid (BALF, urea-corrected) after CMS nebulization
Format: in vivo, human
Reported Conditions: human, epithelial lining fluid, inhaled or intranasal; 1 h after start (time by position in Figure 1a); CMS 0.9375 MIU nebulized over 30 min; LC-MS/MS; 20 patients; read-out: Median colistin concentration in ELF
Positions of bridges follow the written chain, without caps; N, C: chain ends. Non-standard residues stand in square brackets, D forms with d. Residues, ends and D or L forms follow the SMILES beside them. *: point of attachment. X1 = CC[C@H](C)CCCCC(=O)*; Dab = NCC[C@H](N)C(=O)O

{"columns": ["Molecule", "level at 1 h"],
 "data": [
  ["CC[C@H](C)CCCCC(=O)N[C@@H](CCN)C(=O)N[C@H](C(=O)N[C@@H](CCN)C(=O)N[C@H]1CCNC(=O)[C@H]([C@@H](C)O)NC(=O)[C@H](CCN)NC(=O)[C@H](CCN)NC(=O)[C@H](CC(C)C)NC(=O)[C@@H](CC(C)C)NC(=O)[C@H](CCN)NC1=O)[C@@H](C)O [colistin] (X1-[Dab]T[Dab][Dab][Dab][dL]L[Dab][Dab]T; lactam 4-C)", "11800 ng/mL"]
]}
